- System: UO-31
- experiment.notes: NCI tumour cell line growth inhibition, 48 h
Calls of active or inactive are those of the source. No stated cut-off is given here; in the data, active = GI50 up to about 1.1 µM and inactive = higher. Square brackets hold non-standard residues; d marks the D form. Peptide text beside a SMILES is read from it. ξ: configuration not given here. ξ2Thi = NC(Cc1cccs1)C(=O)O; ξR = N=C(N)NCCCC(N)C(=O)O; ξI = CCC(C)C(N)C(=O)O; ξL = CC(C)CC(N)C(=O)O; ξK = NCCCCC(N)C(=O)O; ξT = CC(O)C(N)C(=O)O; ξA = CC(N)C(=O)O
Would you mind answering with one of these outcomes? yes for active, no for inactive

Task: Test call for this compound, please: CN(C)c1nnnn1-c1c(N)n(C)c(=O)n(C)c1=O
Output: no

Task: Test call for this compound, please: O=C(OCc1ccccc1C1CSCSC1)c1cc(C(=O)OCc2ccccc2C2CSCSC2)c(C(=O)OCc2ccccc2C2CSCSC2)cc1C(=O)OCc1ccccc1C1CSCSC1
Output: no

Task: Test call for this compound, please: CCC(C)C(NC(=O)C(Cc1cccs1)NC(=O)C(CC(C)C)NC(=O)C(CC(C)C)NC(=O)C(CCCCN)NC(=O)C(CCCN=C(N)N)NC(=O)[C@H](Cc1ccc(O)cc1)NC(=O)C(NC(=O)C(C)NC(=O)C(N)CC(C)C)C(C)O)C(=O)NC(CC(C)C)C(N)=O (stereo not given in full) (H-[ξL][ξA][ξT]Y[ξR][ξK][ξL][ξL][ξ2Thi][ξI][ξL]-NH2)
Output: no

Task: Test call for this compound, please: Cn1c(N=[N+]=[N-])cc(=O)n(C)c1=O
Output: no

Task: Test call for this compound, please: CCOC(=O)c1c(N)sc2c1C(C(=O)OCC)CCCC2 (stereo not given)
Output: no

Task: Test call for this compound, please: CCOc1ccccc1/N=N/c1ccc2oc(=O)c(C(=O)Nc3cccc(C)c3)cc2c1
Output: no

Task: Test call for this compound, please: c1ccc2c(c1)N=C(NC1CCCCC1)CCN2
Output: no

Task: Test call for this compound, please: CC(=O)Nc1cccc(N2C(=O)/C(=C\c3cccc(Oc4ccccc4)c3)SC2c2ccccc2)c1 (stereo not given)
Output: no

Task: Test call for this compound, please: CN1CC2=C(N=C(S)NC2c2ccccc2)/C(=C/c2ccccc2)C1 (stereo not given)
Output: no

Task: Test call for this compound, please: COc1cc(C2S/C(=C/c3ccccc3)C(=O)N2c2ccc([N+](=O)[O-])cc2)cc(OC)c1OC (stereo not given)
Output: no

Task: Test call for this compound, please: CC1=NN(c2nc(N)nc(/C(C#N)=C\c3ccc([N+](=O)[O-])s3)n2)C(C)(C)C1
Output: yes

Task: Test call for this compound, please: C[C@@H]1CCC2[C@@H](C)C(=O)O[C@@H]3C4C[C@@H]1[C@@]23OO[C@@]4(C)O (stereo not given in full)
Output: no

Task: Test call for this compound, please: CCN1C[C@]2(C)CC[C@H](O)C34C1C(C[C@@H]32)[C@@]1(O)CC[C@H]2C[C@@H]4[C@@H]1[C@H]2O
Output: no

Task: Test call for this compound, please: O=S(=O)(O)c1cc(O)c2c(/N=C\c3ccccc3O)cc(S(=O)(=O)O)cc2c1
Output: no

Task: Test call for this compound, please: Cc1ccc(NC(=O)CCc2nc(N)nc(N)c2-c2ccccc2)cc1C
Output: no

* * *

- Test system: M14
- experiment.notes: NCI tumour cell line growth inhibition, 48 h
Calls of active or inactive are those of the source. No stated cut-off is given here; in the data, active = GI50 up to about 1.1 µM and inactive = higher.
Would you mind answering with one of these outcomes? Yes = active, No = inactive

Task: Test call for this compound, please: O=C1c2c(c3c4ccccc4[nH]c3c3[nH]c4ccccc4c23)C(=O)N1Cc1ccccc1
Output: No

Task: Test call for this compound, please: CC(=O)OC1C[C@@H](C)C2(CC(c3ccoc3)OC2=O)C2CCC(O)C3(CO3)C12CO (some centres not stated)
Output: No

Task: Test call for this compound, please: COC1=C(C)C(=O)c2c(c(COC(N)=O)c3n2CC2C3N2C)C1=O (configuration not stated)
Output: Yes

Task: Test call for this compound, please: CCOc1ccc(-c2nc(-c3oc4ccccc4c(=O)c3OC(C)=O)cs2)cc1
Output: No

Task: Test call for this compound, please: CCC(C)CNC1=C(NC(C)=O)C(=O)c2ccccc2C1=O (configuration not stated)
Output: No

Task: Test call for this compound, please: O=[N+]([O-])c1ccccc1/C=N/C12CC3CC(CC(C3)C1)C2
Output: No

Task: Test call for this compound, please: CCOC(=O)C1=C(OS(=O)(=O)C(F)(F)F)CCCC1
Output: No

Task: Test call for this compound, please: c1ccc(-c2c[nH]c(SC(c3ccccc3)c3ccccc3)n2)cc1
Output: No

Task: Test call for this compound, please: c1ccc2c(c1)N=C(NC1CCCCC1)CCN2
Output: No

Task: Test call for this compound, please: CC(Cl)(CCC(Cl)C(C)(C)Cl)C(=O)CBr (configuration not stated)
Output: No

Task: Test call for this compound, please: OCCSCc1cc2c(O)c(c1)Cc1cc(CSCCO)cc(c1O)Cc1cc(CSCCO)cc(c1O)Cc1cc(CSCCO)cc(c1O)C2
Output: No

Task: Test call for this compound, please: N/N=C1/C(=N/O)CCc2nonc21
Output: No

Task: Test call for this compound, please: NNC(N)Nc1ccccc1 (configuration not stated)
Output: No

Task: Test call for this compound, please: O=C1COc2cc(N3CCN(c4cccc(C(F)(F)F)c4)CC3)ccc2N1
Output: No

Task: Test call for this compound, please: CC(=O)CCCCC(=O)Nc1ccc(CC(NC(=O)OC(C)(C)C)C(=O)NCC(=O)OCc2ccccc2)cc1 (configuration not stated)
Output: No

Task: Test call for this compound, please: COc1cc(CNc2c3ccccc3nc3ccccc23)cc(OC)c1OC
Output: No

Task: Test call for this compound, please: C[C@@H](NC(=O)Cn1c(Cl)nc2ccccc21)c1ccccc1
Output: No

Task: Test call for this compound, please: Nc1nc2c3c(ncn3CC(O)CO2)n1 (configuration not stated)
Output: No

Task: Test call for this compound, please: CCOC(=O)c1ccc(Nc2nc3cc(C(F)(F)F)ccc3nc2C(=O)OCC)cc1
Output: No

Task: Test call for this compound, please: O=C(NNC(=O)/C(=C/c1cccc([N+](=O)[O-])c1)NC(=O)c1ccccc1)Nc1ccc(Cl)cc1
Output: No

Task: Test call for this compound, please: CCOc1cc2c(cc1O)C(=O)C[C@@H]1[C@@H]2CC[C@]2(C)[C@@H](O)CC[C@@H]12
Output: Yes

Task: Test call for this compound, please: C=CCOCn1cc(C)c(=O)[nH]c1=O
Output: No

* * *

So I've got a bunch of compounds here, and I need their GI50 values.
- System: U-251
- experiment.notes: NCI tumour cell line growth inhibition, 48 h
Activity calls are given as the source filed them. Rule as the data show it: active = GI50 up to about 1.1 µM and inactive = higher.

Task: What does the record list as GI50 for CC(=O)O/N=C/c1ncccc1CO ?
Output: > 100 µM (inactive)

Task: What does the record list as GI50 for CC[C@@]1(O)C(=O)OCc2c1cc1n(c2=O)Cc2cc3c(N)cccc3nc2-1 ?
Output: 0.0108 µM (active)

Task: What does the record list as GI50 for COC(=O)C1=C(C[S+]([O-])c2ccc([N+](=O)[O-])cc2[N+](=O)[O-])ON(C)C1c1ccccc1 (stereo not given) ?
Output: 31.3 µM (inactive)

Task: What does the record list as GI50 for COc1ccc(/C(C)=N/NC(=O)c2ccncc2)cc1OC ?
Output: > 10 µM (inactive)

Task: What does the record list as GI50 for CC(Cl)(CCC(Cl)C(C)(C)Cl)C(=O)CBr (stereo not given) ?
Output: 15.6 µM (inactive)

Task: What does the record list as GI50 for COc1cc2c(cc1OC)C(Cc1cc(Br)c(OC)c(OC)c1)=[N+](C)CC2 ?
Output: 8.17 µM (inactive)

Task: What does the record list as GI50 for Cc1ccc(C2=C(C#N)C(N)OC3=C2COc2ccccc23)cc1 (stereo not given) ?
Output: 19.5 µM (inactive)

Task: What does the record list as GI50 for O=[N+]([O-])/C(Cl)=C(\Nc1ccccc1)C(Cl)=C(Cl)Cl ?
Output: 43.1 µM (inactive)

Task: What does the record list as GI50 for CC(=O)O[C@H]1C[C@]2(C)C(CCC3O[C@@]32C)[C@@]2(CC(c3ccoc3)OC2O)[C@@H]1C (stereo not given in full) ?
Output: > 100 µM (inactive)

Task: What does the record list as GI50 for CCN(CC)c1ccc2cc(-c3nc(O)c4ccccc4n3)c(=N)oc2c1 ?
Output: > 100 µM (inactive)

Task: What does the record list as GI50 for O=C(c1ccccc1)c1sc2c(=O)c(C(=O)c3ccccc3)c(C(=O)c3ccccc3)sc2c(=O)c1C(=O)c1ccccc1 ?
Output: 44.3 µM (inactive)

Task: What does the record list as GI50 for CC[C@@]1(O)C[C@H](OC2CC(N(C)C)C(O)C(C)O2)c2c(cc3c(c2O)C(=O)c2c(O)ccc(O)c2C3=O)[C@H]1C(=O)OC (stereo not given in full) ?
Output: 0.0405 µM (active)

Task: What does the record list as GI50 for NC(=O)c1nnc2cc(F)ccc2c1N ?
Output: > 100 µM (inactive)

Task: What does the record list as GI50 for O=C(CCN1CCCCC1CCO)Nc1ccc2c(c1)C(=O)c1ccc(NC(=O)CCN3CCCCC3CCO)cc1C2=O (stereo not given) ?
Output: 4.08 µM (inactive)

Task: What does the record list as GI50 for CC(C)(Cc1ccccc1)Cc1cc(O)ccc1O ?
Output: 15.2 µM (inactive)

Task: What does the record list as GI50 for Nc1nc(-c2ccco2)cc(-c2ccco2)n1 ?
Output: > 100 µM (inactive)

Task: What does the record list as GI50 for [O-][Cl+3]([O-])([O-])[O-].c1ccc(C[P+]2(c3ccccc3)CCCCC2)cc1 ?
Output: 38.4 µM (inactive)

Task: What does the record list as GI50 for COC(=O)c1cc2c3c(cc(NCCN)c2[nH]1)N(C(=O)c1cc2cc(OC)c(OC)c(OC)c2[nH]1)CC3CCl (stereo not given) ?
Output: 0.0144 µM (active)

Task: What does the record list as GI50 for COc1cc(C2S/C(=C/c3ccccc3)C(=O)N2c2ccc([N+](=O)[O-])cc2)cc(OC)c1OC (stereo not given) ?
Output: > 100 µM (inactive)

Task: What does the record list as GI50 for Cc1c(C#N)c2nnn(-c3cccc(Cl)c3)c(=O)n2c1-c1ccccc1 ?
Output: 2.33 µM (inactive)
